Biological target: T1, soluble H-2K^b (soluble extracellular domains; heavy chain residues 1-274 with C-terminal His-tag and β2-microglobulin residues 1-99) (mouse)
T1 chain: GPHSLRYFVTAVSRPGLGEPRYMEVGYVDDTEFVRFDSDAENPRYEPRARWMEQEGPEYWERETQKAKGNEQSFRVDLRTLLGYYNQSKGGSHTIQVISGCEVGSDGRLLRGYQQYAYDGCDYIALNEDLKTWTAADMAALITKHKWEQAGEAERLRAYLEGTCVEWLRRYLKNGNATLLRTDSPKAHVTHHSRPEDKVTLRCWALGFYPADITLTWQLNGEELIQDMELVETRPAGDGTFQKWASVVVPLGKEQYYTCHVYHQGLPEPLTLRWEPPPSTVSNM
Test: inhibition assay with soluble H-2K^b, 4° C.
measured_parameter: Kd (nM)
Expressed in nM, but write only the number.

So, RGYVYQGL (modifications not checked) [VSV8 (RGYVYQGL), Vesicular stomatitis virus NP52-59] ? Its Kd was 34

Where do the numbers come from? From patent US20090317414A1.
